Reference for the values: patent US9856220B2

pIC50 values by entry
# target.entity: PDE10A (Homo sapiens (Human), UniProt Q9Y233)
# Sequence (Q9Y233 whole entry, species assumed): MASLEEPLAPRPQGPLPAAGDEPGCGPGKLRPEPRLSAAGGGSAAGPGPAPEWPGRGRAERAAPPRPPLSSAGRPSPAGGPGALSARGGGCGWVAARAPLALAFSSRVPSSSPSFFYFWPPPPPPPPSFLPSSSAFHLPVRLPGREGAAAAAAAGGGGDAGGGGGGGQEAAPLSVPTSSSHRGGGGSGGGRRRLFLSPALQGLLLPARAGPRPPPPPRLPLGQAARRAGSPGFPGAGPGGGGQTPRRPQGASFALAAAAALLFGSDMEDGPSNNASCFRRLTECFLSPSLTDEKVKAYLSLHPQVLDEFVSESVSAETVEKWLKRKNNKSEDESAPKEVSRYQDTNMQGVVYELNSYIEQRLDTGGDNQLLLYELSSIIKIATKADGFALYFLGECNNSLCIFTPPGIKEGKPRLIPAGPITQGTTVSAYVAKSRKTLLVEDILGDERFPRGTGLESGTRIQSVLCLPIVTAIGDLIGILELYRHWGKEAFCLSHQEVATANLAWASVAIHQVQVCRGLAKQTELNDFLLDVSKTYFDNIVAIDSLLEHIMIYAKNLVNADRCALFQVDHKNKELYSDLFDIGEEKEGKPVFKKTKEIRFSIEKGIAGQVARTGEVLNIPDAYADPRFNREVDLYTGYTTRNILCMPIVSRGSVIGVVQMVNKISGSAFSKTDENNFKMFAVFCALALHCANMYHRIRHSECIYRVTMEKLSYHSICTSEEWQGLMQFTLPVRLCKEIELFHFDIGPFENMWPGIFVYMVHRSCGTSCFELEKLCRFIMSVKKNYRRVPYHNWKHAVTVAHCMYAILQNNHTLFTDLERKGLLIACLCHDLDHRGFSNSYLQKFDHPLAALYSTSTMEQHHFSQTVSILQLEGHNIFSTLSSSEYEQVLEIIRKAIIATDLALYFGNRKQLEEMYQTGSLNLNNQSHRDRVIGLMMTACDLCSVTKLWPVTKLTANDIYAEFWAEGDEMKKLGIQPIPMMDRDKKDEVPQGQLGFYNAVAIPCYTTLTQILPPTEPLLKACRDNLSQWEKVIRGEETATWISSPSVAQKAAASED
# measurement.protocol: Measurement of PDE activity (recombinant PDE, cAMP HTRF)
# condition.set: 20 nM cyclic nucleotide substrate, 60 minutes at 29 C
pIC50: −log10 of the molar value. Counter-ions that a name gives are not always drawn.
experimental.endpoint: pIC50

compound=CCn1cc(C(=O)N2Cc3ccccc3C2)c2cc(OC)c(OC)cc2c1=O result="6.30 to 6.70"
compound=CCn1cc(C(=O)NCc2c(F)cccc2F)c2cc(OC)c(OC)cc2c1=O result="6.30 to 6.70"
compound="CCC(CC)n1cc(C(=O)NC2CCc3sccc32)c2cc(OC)c(OC)cc2c1=O (centres unmarked)" result="> 7.00"
compound="CCn1cc(C(=O)NC2CCc3cc(F)ccc32)c2cc(OC)c(OC)cc2c1=O (centres unmarked)" result="6.30 to 6.70"
compound=CCC(CC)n1cc(C(=O)NCc2cc(C)sc2C)c2cc(OC)c(OC)cc2c1=O result="6.30 to 6.70"
compound="CCn1cc(C(=O)NC2CCc3ccccc32)c2cc(OC)c(OC)cc2c1=O (centres unmarked)" result="6.70 to 7.00"
compound=CCC(CC)n1cc(C(=O)NCc2ccccn2)c2cc(OC)c(OC)cc2c1=O result="6.70 to 7.00"
compound=CCn1cc(C(=O)NCc2cccc(F)c2)c2cc(OC)c(OC)cc2c1=O result="6.30 to 6.70"
compound=CCn1cc(C(=O)NCc2ccc(C)cc2OCC(F)(F)F)c2cc(OC)c(OC)cc2c1=O result="6.30 to 6.70"
compound=CCC(CC)n1cc(C(=O)NCc2cc(C)no2)c2cc(OC)c(OC)cc2c1=O result="6.70 to 7.00"
compound=CCn1cc(C(=O)NCc2cccc(F)c2F)c2cc(OC)c(OC)cc2c1=O result="6.30 to 6.70"
compound="CCC(CC)n1cc(C(=O)NCc2ccccc2CN(C)C)c2cc(OC)c(OC)cc2c1=O [Example 187, hydrochloride]" result="6.30 to 6.70"
compound=CCCCNC(=O)c1cn(CCc2ccc3ccccc3n2)c(=O)c2cc(OC)ccc12 result="6.70 to 7.00"
compound=CCC(CC)n1cc(C(=O)NCc2ccncc2)c2cc(OC)c(OC)cc2c1=O result="6.30 to 6.70"
compound=CCC(CC)n1cc(C(=O)NCc2ccc(C)cc2)c2cc(OC)c(OC)cc2c1=O result="6.70 to 7.00"
compound=CCC(CC)n1cc(C(=O)NCc2nccs2)c2cc(OC)c(OC)cc2c1=O result="6.70 to 7.00"
compound=CCn1cc(C(=O)Nc2ccc(N3CCOCC3)cc2)c2cc(OC)c(OC)cc2c1=O result="6.70 to 7.00"
compound=CCn1cc(C(=O)Nc2ccncc2)c2cc(OC)c(OC)cc2c1=O result="6.30 to 6.70"
compound=CCC(CC)n1cc(C(=O)NCc2cc(F)cc(F)c2)c2cc(OC)c(OC)cc2c1=O result="6.70 to 7.00"
compound="CCn1cc(C(=O)NC2CCc3ccc(C)cc32)c2cc(OC)c(OC)cc2c1=O (centres unmarked)" result="6.30 to 6.70"
compound=CCn1cc(C(=O)NCc2ccccc2OC)c2cc(OC)c(OC)cc2c1=O result="6.30 to 6.70"
compound=CCCCNC(=O)c1cn(CC)c(=O)c2cc(OC)c(OC)cc12 result="6.70 to 7.00"
compound=CCn1cc(C(=O)NCc2cscn2)c2cc(OC)c(OC)cc2c1=O result="6.30 to 6.70"
compound="CCn1cc(C(=O)NC2CCc3ccc(OC)cc32)c2cc(OC)c(OC)cc2c1=O (centres unmarked)" result="6.30 to 6.70"
compound=CCC(CC)n1cc(C(=O)NCc2ccn(C)n2)c2cc(OC)c(OC)cc2c1=O result="6.30 to 6.70"
compound="CCC(CC)n1cc(C(=O)NC2CCc3cc(F)ccc32)c2cc(OC)c(OC)cc2c1=O (centres unmarked)" result="6.70 to 7.00"
compound="CCC(C)n1cc(C(=O)NC2CCc3ccccc32)c2cc(OC)c(OC)cc2c1=O (centres unmarked)" result="6.70 to 7.00"
compound="CCn1cc(C(=O)NC2CCc3cc(C)ccc32)c2cc(OC)c(OC)cc2c1=O (centres unmarked)" result="6.30 to 6.70"
compound=CCCCCNC(=O)c1cn(CC)c(=O)c2cc(OC)c(OC)cc12 result="6.30 to 6.70"
